B1: EMD (parent)
chain: YQSKGYNDDYYEESYFTTRTYGEP

- Variants of: B1
- assay.explanation: protein stability index of a GFP-peptide fusion (GPS, HEK-293T) (PSI 1-6); higher = more stable;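 further: lentivirally expressed fusions sorted by FACS into six bins by GFP to DsRed ratio, PSI derived from sequencing read proportions per bin multiplied by bin number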
- cond: c terminus: a fixed tail appended
Exercise: for every item that follows, state its recorded protein stability index.
Number only, please.

Fill in reported protein stability index for this entry: `Y1G`
3.8

Quick one: give measured protein stability index for `G22C`
1.92

For the variant `N7P` , give its measured protein stability index value.
2.17

Return value of protein stability index for input `F16A` , no commentary.
3.2

Tell me its protein stability index given `P24H` as the entry.
1.97

Given the variant `Q2S` , write its reported protein stability index.
2.65

State its protein stability index: `P24G`
2.51

Consider the variant `D8R` and give its recorded protein stability index.
1.8
